Please go through the items and note down their pIC50.
- study.system: T1, human VPAC2 receptor (human), P41587
- T1 chain: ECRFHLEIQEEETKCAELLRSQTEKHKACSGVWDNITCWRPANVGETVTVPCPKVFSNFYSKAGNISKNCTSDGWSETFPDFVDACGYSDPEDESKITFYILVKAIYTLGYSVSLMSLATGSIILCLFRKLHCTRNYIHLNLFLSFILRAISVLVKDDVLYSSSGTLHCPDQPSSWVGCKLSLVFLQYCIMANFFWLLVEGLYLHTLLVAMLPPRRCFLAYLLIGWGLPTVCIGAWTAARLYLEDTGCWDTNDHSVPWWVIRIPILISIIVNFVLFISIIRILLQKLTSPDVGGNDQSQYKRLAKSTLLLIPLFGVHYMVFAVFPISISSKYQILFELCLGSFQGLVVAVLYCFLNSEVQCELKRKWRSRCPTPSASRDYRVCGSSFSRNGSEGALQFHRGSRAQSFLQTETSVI
- experimental.details: filter binding, VPAC2 membranes, 125I-VIP tracer
Answers are plain numbers, as −log10 of the molar value.

HSDAVFTDNYTRLRKQVAARRYLQSIRNGGPSSGAPPPS (modifications not checked) [P245] ... 6.04
HSDAVFTDNYTRLRKQVAAKKYLQSIKNKRYGGPSSGAPPPC (modifications not checked) [P137] ... 9.19
HSDAVFTDNYTRLRRQVAARKYLQSIRNGGPSSGAPPPS (modifications not checked) [P247] ... 6.45

The record that follows has no pIC50 shown yet.
Request: Supply recorded pIC50 for HSDAVFTDNYTRLRRQVAAKRYLQSIRNGGPSSGAPPPS (modifications not checked) [P219] here.
Result: 7.17
